Would you kindly list fraction unbound at 4 h, 0.5 μM for each of these molecules?
Experiment: Fraction unbound to microsomes (fu,mic), equilibrium dialysis, HLM 0.2 mg/mL
Settings: both, human, human liver microsomes
One number for each entry.

Below, 3 molecules whose answers are already recorded.
- Molecule: "COCc1oc(S(=O)(=O)NC(=O)Nc2nc(C)c(Br)s2)cc1C [RO04]"
  Measured value: 0.45
- Molecule: "COCCc1sc(S(=O)(=O)NC(=O)Nc2snc(C)c2Br)cc1C [RO09]"
  Measured value: 0.97
- Molecule: "COCc1oc(S(=O)(=O)NC(=O)Nc2ncc(Br)s2)cc1C [RO03]"
  Measured value: 0.41

Could you report fraction unbound at 4 h, 0.5 μM for every entry in the following list?
1. Cn1c(S(=O)(=O)NC(=O)Nc2ncc(Br)s2)cc2ccccc21 [RO06]
2. Cc1c(O)cccc1C(=O)N[C@@H](CSc1ccccc1)[C@H](O)CN1C[C@H]2CCCC[C@H]2C[C@H]1C(=O)NC(C)(C)C [Nelfinavir]
3. CCn1cc(C(=O)O)c(=O)c2cc(F)c(N3CCNCC3)nc21 [Enoxacin]
4. Cc1cccc(S(=O)(=O)NC(=O)Nc2cc(Br)cc(N)n2)c1 [RO01]
5. Cc1cccc(S(=O)(=O)NC(=O)Nc2snc(C)c2Br)c1 [RO08]

1: 0.36; 2: 0.04; 3: 0.53; 4: 0.42; 5: 0.41

Could you report fraction unbound at 4 h, 0.5 μM for every entry in the following list?
1. COc1cc(C)c(-c2sc(S(=O)(=O)NC(=O)Nc3ncc(Br)s3)cc2C)cn1 [RO07]
2. O=C(Nc1ncc(Br)s1)NS(=O)(=O)c1cc2cccc(Cl)c2s1 [RO05]
3. CC[C@H]1OC(=O)[C@H](C)[C@@H](O[C@H]2C[C@@](C)(OC)[C@@H](O)[C@H](C)O2)[C@H](C)[C@@H](O[C@@H]2O[C@H](C)C[C@H](N(C)C)[C@H]2O)[C@](C)(OC)C[C@@H](C)C(=O)[C@H](C)[C@@H](O)[C@]1(C)O [Clarithromycin]
4. Cc1cccc2cc(S(=O)(=O)NC(=O)Nc3ncc(Br)s3)sc12 [RO02]

[0.84, 0.23, 0.4, 0.36]

----------
Assay: Fraction unbound in the cell (fu,cell), homogenization method/equilibrium dialysis
Assay type: in vitro ADME, human
Conditions: human, human hepatocyte cell homogenate, HH homogenate; RO compounds
# cutoff 0.009 applies to fraction unbound at 4 h, 0.5 μM; >= gives 1.0, < gives 0.0

Please review the following examples before continuing.
- Compound: "O=C(Nc1ncc(Br)s1)NS(=O)(=O)c1cc2cccc(Cl)c2s1 [RO05]"
  Group label: 0.0
- Compound: "COCc1oc(S(=O)(=O)NC(=O)Nc2nc(C)c(Br)s2)cc1C [RO04]"
  Group label: 1.0
- Compound: "COCc1oc(S(=O)(=O)NC(=O)Nc2ncc(Br)s2)cc1C [RO03]"
  Group label: 1.0
- Compound: "COc1cc(C)c(-c2sc(S(=O)(=O)NC(=O)Nc3ncc(Br)s3)cc2C)cn1 [RO07]"
  Group label: 0.0
- Compound: "Cc1cccc(S(=O)(=O)NC(=O)Nc2cc(Br)cc(N)n2)c1 [RO01]"
  Group label: 1.0
- Compound: "Cn1c(S(=O)(=O)NC(=O)Nc2ncc(Br)s2)cc2ccccc21 [RO06]"
  Group label: 0.0
- Compound: "Cc1cccc2cc(S(=O)(=O)NC(=O)Nc3ncc(Br)s3)sc12 [RO02]"
  Group label: 0.0

Consider now this further compound.
Test whether the compound COCCc1sc(S(=O)(=O)NC(=O)Nc2snc(C)c2Br)cc1C [RO09] records fraction unbound at 4 h, 0.5 μM of 0.009 or higher.
0.0
